# target_or_system: hSCN9A (Homo sapiens, UniProt Q15858)
# Construct: expressed in transfected cells
# Sequence (Q15858 whole entry): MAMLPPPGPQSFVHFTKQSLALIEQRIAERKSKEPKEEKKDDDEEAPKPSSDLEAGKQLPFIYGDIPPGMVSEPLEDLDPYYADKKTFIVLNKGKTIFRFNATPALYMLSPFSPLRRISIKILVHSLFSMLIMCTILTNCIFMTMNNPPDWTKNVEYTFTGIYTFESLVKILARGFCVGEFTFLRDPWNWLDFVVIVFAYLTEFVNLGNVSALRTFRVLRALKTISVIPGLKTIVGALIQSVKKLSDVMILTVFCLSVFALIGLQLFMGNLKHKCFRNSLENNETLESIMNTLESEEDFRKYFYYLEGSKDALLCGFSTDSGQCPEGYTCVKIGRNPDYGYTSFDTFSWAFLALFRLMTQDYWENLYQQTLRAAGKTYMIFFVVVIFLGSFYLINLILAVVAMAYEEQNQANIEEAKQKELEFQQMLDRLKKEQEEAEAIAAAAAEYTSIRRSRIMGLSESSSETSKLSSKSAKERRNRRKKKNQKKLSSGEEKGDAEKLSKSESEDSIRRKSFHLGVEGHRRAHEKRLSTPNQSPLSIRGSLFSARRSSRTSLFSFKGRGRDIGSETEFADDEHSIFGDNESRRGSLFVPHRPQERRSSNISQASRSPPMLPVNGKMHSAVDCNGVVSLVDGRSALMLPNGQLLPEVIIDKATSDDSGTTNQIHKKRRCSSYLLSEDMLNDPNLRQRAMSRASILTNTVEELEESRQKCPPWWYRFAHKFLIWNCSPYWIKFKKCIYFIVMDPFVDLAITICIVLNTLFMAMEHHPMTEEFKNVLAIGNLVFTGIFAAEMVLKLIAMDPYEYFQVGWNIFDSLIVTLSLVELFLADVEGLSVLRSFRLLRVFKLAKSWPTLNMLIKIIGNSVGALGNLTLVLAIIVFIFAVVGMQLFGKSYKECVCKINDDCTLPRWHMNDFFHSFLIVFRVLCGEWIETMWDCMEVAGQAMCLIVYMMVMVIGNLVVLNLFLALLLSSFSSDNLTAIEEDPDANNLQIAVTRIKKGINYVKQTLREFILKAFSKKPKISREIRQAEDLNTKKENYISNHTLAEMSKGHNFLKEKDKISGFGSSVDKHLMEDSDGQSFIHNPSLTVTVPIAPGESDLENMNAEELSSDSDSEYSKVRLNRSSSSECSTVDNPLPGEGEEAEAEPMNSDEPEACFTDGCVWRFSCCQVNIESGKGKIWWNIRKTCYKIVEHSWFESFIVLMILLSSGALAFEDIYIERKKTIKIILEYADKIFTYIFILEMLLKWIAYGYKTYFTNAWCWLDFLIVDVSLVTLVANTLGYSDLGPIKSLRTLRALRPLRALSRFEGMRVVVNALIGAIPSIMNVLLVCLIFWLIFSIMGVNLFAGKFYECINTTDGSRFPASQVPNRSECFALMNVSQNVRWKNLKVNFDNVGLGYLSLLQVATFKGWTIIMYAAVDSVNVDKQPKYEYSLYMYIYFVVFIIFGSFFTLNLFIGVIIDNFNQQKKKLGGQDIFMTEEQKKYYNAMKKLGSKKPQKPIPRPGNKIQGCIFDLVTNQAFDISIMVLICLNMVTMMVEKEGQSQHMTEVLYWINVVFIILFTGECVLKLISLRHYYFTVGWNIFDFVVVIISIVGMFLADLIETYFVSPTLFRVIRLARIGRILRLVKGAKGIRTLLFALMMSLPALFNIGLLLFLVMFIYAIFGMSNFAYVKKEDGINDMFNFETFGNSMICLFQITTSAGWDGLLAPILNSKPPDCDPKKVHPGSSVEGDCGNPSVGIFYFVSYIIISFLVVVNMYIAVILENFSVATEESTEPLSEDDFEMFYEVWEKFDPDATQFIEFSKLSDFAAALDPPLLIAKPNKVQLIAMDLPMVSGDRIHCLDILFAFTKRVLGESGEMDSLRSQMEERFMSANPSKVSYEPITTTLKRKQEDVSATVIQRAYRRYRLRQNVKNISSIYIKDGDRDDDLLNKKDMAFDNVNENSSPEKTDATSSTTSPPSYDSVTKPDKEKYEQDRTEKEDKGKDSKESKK
# assay_explanation: Whole-cell patch-clamp electrophysiology (conventional or PatchXpress), HEK cells expressing hSCN9A, estimated IC-50
# Type: cell-based
# measurement_context: estimated IC-50, HEK cells expressing hSCN9A; class symbols or bounds; read-out: SCN9A EIC-50
pIC50: −log10 of the molar value.
Let's look at some molecules and their measured pIC50.

O=S(=O)(Nc1nccs1)c1ccc(Nc2nc3ccccc3s2)cc1 < 6.00
Cn1nc(Cc2cccc(Cl)c2)cc1Nc1ccc(S(=O)(=O)Nc2nccs2)cc1 > 5.70
CC(C)(C)n1nc(Cc2ccc(Cl)c(F)c2)cc1Nc1ccc(S(=O)(=O)Nc2nccs2)c(F)c1 > 5.70
Cn1ncc(-c2ccccc2)c1Nc1ccc(S(=O)(=O)Nc2nccs2)c(F)c1 5.00 to 5.70
Cc1cc(Nc2ccc(S(=O)(=O)Nc3nccs3)c(OC(F)(F)F)c2)n(-c2ccccc2)n1 < 6.00
O=S(=O)(Nc1nc(C(F)(F)F)co1)c1ccc(Nc2nc(Cc3ccc(Cl)cc3)cs2)cc1 < 6.00
O=S(=O)(Nc1ccccn1)c1ccc(Nc2nc(Cc3ccc(Cl)cc3)cs2)cc1 < 6.00

// next item, pIC50 requested
Measured pIC50 of "CC(C)(C)c1csc(Nc2ccc(S(=O)(=O)Nc3nccs3)c(C#N)c2)n1" : < 6.00

###

# target_or_system: hSCN9A (Homo sapiens, UniProt Q15858)
# Construct: expressed in transfected cells
# assay_explanation: Whole-cell patch-clamp electrophysiology (conventional or PatchXpress), HEK cells expressing hSCN9A, estimated IC-50
# Format: cell-based
# measurement_context: estimated IC-50, HEK cells expressing hSCN9A; class symbols or bounds; read-out: SCN9A EIC-50
Let's look at some compounds and their measured IC50.

As a guide, the following entries are already answered.
CC(C)(C)n1nc(Cc2cccc(Cl)c2)cc1Nc1ccc(S(=O)(=O)Nc2nccs2)cc1 2 to 10 µM
O=S(=O)(Nc1nccs1)c1ccc2c(cnn2Cc2ccc(OC(F)(F)F)cc2)c1 < 2 µM
Cc1cc(Nc2ccc(S(=O)(=O)Nc3nccs3)c(F)c2)n(-c2ccccc2C)n1 < 2 µM

// next item, IC50 requested
Measured IC50 of "Cc1cc(Nc2ccc(S(=O)(=O)Nc3nccs3)c(F)c2)n(-c2cccc(Cl)c2)n1" : < 2 µM

###

# target_or_system: hSCN9A (Homo sapiens, UniProt Q15858)
# Construct: expressed in transfected cells
# assay_explanation: Whole-cell patch-clamp electrophysiology (conventional or PatchXpress), HEK cells expressing hSCN9A, estimated IC-50
# Assay type: cell-based
# measurement_context: estimated IC-50, HEK cells expressing hSCN9A; class symbols or bounds; read-out: SCN9A EIC-50
Let's look at some molecules and their measured IC50.

As a guide, the following entries are already answered.
O=S(=O)(Nc1nccs1)c1ccc(Nc2cnn(C(c3ccccc3)c3ccccc3)c2)cc1F < 2 µM
O=S(=O)(Nc1nccs1)c1ccc(Nc2nc(C3(c4ccc(Cl)cc4)CCCC3)cs2)cc1 > 1 µM
COc1ccccc1Cc1cc(Nc2ccc(S(=O)(=O)Nc3nccs3)cc2)n(C)n1 2 to 10 µM
Cc1cc(Nc2ccc(S(=O)(=O)Nc3nccs3)cc2F)n(-c2ccccc2F)n1 < 2 µM

Measured IC50 of "O=S(=O)(Nc1nccs1)c1ccc(Nc2nc(-c3ccc(Cl)cc3)cs2)cc1F" : > 1 µM

Measured IC50 of "Cc1cc(Nc2ccc(S(=O)(=O)Nc3nnc(-c4ccccc4)s3)c(F)c2)n(-c2ccccc2)n1" : 2 to 10 µM

Measured IC50 of "O=S(=O)(Nc1nccs1)c1ccc(Nc2cnn(Cc3ccc(Cl)cc3)c2)nc1" : 2 to 10 µM

Measured IC50 of "Cn1nc(CC2CCCCC2)cc1Nc1ccc(S(=O)(=O)Nc2nccs2)c(O)c1" : < 2 µM

###

Let's look at some compounds and their measured pIC50.
# target_or_system: hSCN3A (Homo sapiens, UniProt Q9NY46)
# Construct: expressed in transfected cells
# Sequence (Q9NY46 whole entry): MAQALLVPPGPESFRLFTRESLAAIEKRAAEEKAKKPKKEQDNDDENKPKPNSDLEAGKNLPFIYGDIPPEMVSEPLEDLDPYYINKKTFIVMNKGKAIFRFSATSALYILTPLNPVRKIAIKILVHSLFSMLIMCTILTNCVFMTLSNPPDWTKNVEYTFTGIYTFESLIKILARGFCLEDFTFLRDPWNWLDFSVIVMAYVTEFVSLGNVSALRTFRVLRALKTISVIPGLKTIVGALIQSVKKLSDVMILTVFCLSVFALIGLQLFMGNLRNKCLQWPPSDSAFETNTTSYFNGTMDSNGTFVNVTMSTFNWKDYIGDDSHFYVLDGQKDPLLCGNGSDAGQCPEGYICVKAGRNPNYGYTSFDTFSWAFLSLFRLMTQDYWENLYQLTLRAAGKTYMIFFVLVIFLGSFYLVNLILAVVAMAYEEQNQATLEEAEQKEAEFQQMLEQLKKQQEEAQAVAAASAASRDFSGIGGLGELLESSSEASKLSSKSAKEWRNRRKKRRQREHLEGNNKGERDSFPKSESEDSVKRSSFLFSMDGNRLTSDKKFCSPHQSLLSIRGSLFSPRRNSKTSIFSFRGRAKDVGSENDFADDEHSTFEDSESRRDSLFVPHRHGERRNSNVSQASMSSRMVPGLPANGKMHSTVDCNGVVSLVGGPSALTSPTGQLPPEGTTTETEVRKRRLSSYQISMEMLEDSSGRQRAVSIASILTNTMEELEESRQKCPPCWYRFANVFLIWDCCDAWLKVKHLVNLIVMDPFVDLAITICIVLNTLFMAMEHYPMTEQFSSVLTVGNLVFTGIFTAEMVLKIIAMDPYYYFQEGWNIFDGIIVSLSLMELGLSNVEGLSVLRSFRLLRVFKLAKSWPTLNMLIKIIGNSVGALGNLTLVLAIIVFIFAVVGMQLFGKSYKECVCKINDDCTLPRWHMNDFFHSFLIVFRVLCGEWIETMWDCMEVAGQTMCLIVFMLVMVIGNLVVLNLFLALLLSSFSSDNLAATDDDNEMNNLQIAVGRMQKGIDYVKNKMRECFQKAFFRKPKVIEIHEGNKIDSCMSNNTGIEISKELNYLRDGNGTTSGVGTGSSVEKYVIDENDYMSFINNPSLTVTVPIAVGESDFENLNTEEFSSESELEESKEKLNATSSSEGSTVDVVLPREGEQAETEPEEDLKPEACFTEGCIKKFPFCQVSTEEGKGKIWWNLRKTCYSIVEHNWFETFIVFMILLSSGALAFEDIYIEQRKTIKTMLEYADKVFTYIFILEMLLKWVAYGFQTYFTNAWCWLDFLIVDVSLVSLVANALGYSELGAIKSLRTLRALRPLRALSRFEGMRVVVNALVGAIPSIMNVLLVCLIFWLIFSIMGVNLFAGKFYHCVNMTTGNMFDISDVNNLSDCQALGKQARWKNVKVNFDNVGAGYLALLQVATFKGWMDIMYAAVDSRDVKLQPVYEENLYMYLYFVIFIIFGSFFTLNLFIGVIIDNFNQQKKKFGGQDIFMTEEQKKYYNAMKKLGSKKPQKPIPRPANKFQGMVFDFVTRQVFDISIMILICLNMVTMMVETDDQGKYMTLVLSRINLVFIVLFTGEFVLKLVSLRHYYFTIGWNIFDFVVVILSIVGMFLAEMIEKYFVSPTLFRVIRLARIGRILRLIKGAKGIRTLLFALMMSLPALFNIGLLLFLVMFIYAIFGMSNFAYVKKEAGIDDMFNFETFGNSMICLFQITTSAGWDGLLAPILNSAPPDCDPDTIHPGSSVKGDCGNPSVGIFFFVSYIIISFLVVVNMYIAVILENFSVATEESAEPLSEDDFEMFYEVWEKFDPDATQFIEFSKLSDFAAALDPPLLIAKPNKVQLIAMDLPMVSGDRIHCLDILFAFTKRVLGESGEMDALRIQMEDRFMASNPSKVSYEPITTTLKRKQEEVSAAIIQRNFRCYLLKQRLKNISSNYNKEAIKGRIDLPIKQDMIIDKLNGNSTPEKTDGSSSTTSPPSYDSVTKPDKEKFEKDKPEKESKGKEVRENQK
# assay_explanation: Whole-cell patch-clamp electrophysiology (conventional or PatchXpress), HEK cells expressing hSCN3A, estimated IC-50
# Type: cell-based
# measurement_context: commercial compounds (second Table VI); estimated IC-50 from single point electrophysiology; read-out: SCN3A EIC-50
In simple prose, pIC50 is minus the logarithm base ten of a concentration in moles per litre.

As a guide, the following entries are already answered.
compound	pIC50
O=S(=O)(Nc1nccs1)c1ccc(Nc2nnc(-c3ccccc3)c3ccccc23)cc1 [Compound 42, reference compound]	5.69
O=S(=O)(Nc1nccs1)c1ccc(Nc2nnc(-c3ccc(Cl)cc3)c3ccccc23)cc1 [Compound 40, reference compound]	5.88

Measured pIC50 of Cc1ccc(-c2nnc(Nc3ccc(S(=O)(=O)Nc4nccs4)cc3)c3ccccc23)cc1 [Compound 41, reference compound] : 5.79

###

# target_or_system: hSCN3A (Homo sapiens, UniProt Q9NY46)
# Construct: expressed in transfected cells
# assay_explanation: Whole-cell patch-clamp electrophysiology (conventional or PatchXpress), HEK cells expressing hSCN3A, estimated IC-50
# Assay type: cell-based
# measurement_context: estimated IC-50, HEK cells expressing hSCN3A; class symbols or bounds; read-out: SCN3A EIC-50
measurement_type: IC50

As a guide, the following entries are already answered.
O=S(=O)(Nc1nccs1)c1ccc(Nc2ncc(S(=O)(=O)c3ccc(Cl)cc3)s2)cc1F < 2 µM
O=S(=O)(Nc1nccs1)c1ccc(Nc2nc(Cc3ccc(Cl)cc3)cs2)nc1 < 2 µM
Cc1cc(Nc2ccc(S(=O)(=O)Nc3nccs3)c(F)c2)n(-c2ccccc2F)n1 < 2 µM
Cc1cc(Nc2ccc(S(=O)(=O)Nc3nccs3)c(Cl)c2)n(-c2ccccc2)n1 < 2 µM
Cc1csc(Nc2ccc(S(=O)(=O)Nc3nccs3)cc2)n1 2 to 10 µM

Measured IC50 of "O=S(=O)(Nc1nccs1)c1ccc(Nc2cc(CC(F)(F)F)nn2-c2ccccc2F)cc1F" : < 2 µM

Measured IC50 of "Cn1nc(CC2CCCCC2)cc1Nc1ccc(S(=O)(=O)Nc2nccs2)c(F)c1" : < 2 µM

Measured IC50 of "COc1ccnc(Nc2ccc(S(=O)(=O)Nc3cc(C)on3)cc2)n1" : > 1 µM

Measured IC50 of "Cn1c(Nc2ccc(S(=O)(=O)Nc3nccs3)cc2)nc2cc(Cl)ccc21" : < 2 µM

Measured IC50 of "CC(C)c1cc(Nc2ccc(S(=O)(=O)Nc3nccs3)c(F)c2)n(-c2ccccc2)n1" : < 2 µM

Measured IC50 of "NC(=O)Cn1nc(Cc2ccc(Cl)cc2)cc1Nc1ccc(S(=O)(=O)Nc2nccs2)cc1" : < 2 µM

Measured IC50 of "Cn1nc(C2(c3ccc(Cl)cc3)CC2)cc1Nc1ccc(S(=O)(=O)Nc2nccs2)cc1" : < 2 µM

Measured IC50 of "O=S(=O)(Nc1nccs1)c1ccc(Nc2nc(-c3ccccc3)cs2)cc1" : > 1 µM

###

# target_or_system: hSCN9A (Homo sapiens)
# Construct: expressed in transfected cells
# assay_explanation: Whole-cell patch-clamp electrophysiology (conventional or PatchXpress), HEK cells expressing hSCN9A, estimated IC-50
# Format: cell-based
# measurement_context: estimated IC-50, HEK cells expressing hSCN9A; class symbols or bounds; read-out: SCN9A EIC-50
# Procedure: Human Embryonic Kidney (HEK) cells were transfected with hSCN3A or hSCN9A constructs using lipofectamine reagent (Invitrogen), using standard techniques. […] The voltage-dependence of inactivation was determined by applying a series of depolarizing prepulses (8 sec long in 10 mV increments) from a negative holding potential. […] Cells were then voltage clamped at the empirically determined V1/2. […]
measurement_type: IC50

As a guide, the following entries are already answered.
molecule	IC50
O=S(=O)(Nc1nccs1)c1ccc(Nc2cccc(C(c3ccccc3)c3ccccc3)n2)cc1 [Compound 93]	> 1000 nM
Cc1ccc(Cc2cc(Nc3ccc(S(=O)(=O)Nc4nccs4)cc3F)n(C(C)(C)C)n2)cc1 [Compound 158]	< 2000 nM
NC(=O)c1cnn(-c2ccc(F)c(Cl)c2)c1Nc1ccc(S(=O)(=O)Nc2nccs2)cc1 [Compound 112]	> 1000 nM
O=S(=O)(Nc1ncns1)c1ccc(Nc2ccn(Cc3ccc(Cl)cc3)n2)cc1F [Compound 244]	< 2000 nM
O=S(=O)(Nc1nccs1)c1ccc(Nc2nc(-c3ccccc3)c(-c3ccccc3)s2)cc1 [Compound 47]	> 3000 nM
Cn1nc(Cc2ccc(Cl)c(F)c2)cc1Nc1ccc(S(=O)(=O)Nc2nccs2)c(F)c1 [Compound 210]	< 2000 nM
Cc1cc(Nc2ccc(S(=O)(=O)Nc3nnc(C(F)F)s3)c(F)c2)n(-c2ccccc2)n1 [Compound 248]	2000 to 10000 nM

Measured IC50 of O=S(=O)(Nc1nccs1)c1ccc(Nc2ccn(Cc3ccccc3)n2)cc1F [Compound 211] : 2000 to 10000 nM
